Assign Enzymatic activity (ATP) Mean (% activity) to each entry below.
# Tested on: dCK-C3S-S74E
# Sequence (P27707 whole entry S74E, form open): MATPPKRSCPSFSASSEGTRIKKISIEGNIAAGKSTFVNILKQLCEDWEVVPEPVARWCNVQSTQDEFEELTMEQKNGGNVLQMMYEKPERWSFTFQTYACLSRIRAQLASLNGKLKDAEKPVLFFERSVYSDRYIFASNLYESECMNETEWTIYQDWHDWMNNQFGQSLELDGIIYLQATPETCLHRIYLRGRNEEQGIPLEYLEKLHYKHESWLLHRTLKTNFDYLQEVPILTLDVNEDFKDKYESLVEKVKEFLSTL
# assay text: Enzymatic assay (PK/LDH coupled), dC phosphorylation by dCK in the presence of ATP
# Assay type: biochemical, human
# condition details: 0.08 µM
# Protocol: For enzymatic assays, cells were re-suspended in 20 mM TRIS, pH 8 500 mM NaCl, 0.1% BRIJ-35 and 5% glycerol buffer and one EDTA free anti-protease tablet was added (Roche). […] Kinetic analyses were performed using a spectrophotometric continuous enzymatic-coupled assay using pyruvate kinase (PK) and lactate dehydrogenase (LDH). […] All measurements were performed on a microplate reader Pherastar FS (BMG Labtech). […]

Known results for compounds:
>  <smi>
CCCN(c1nc(-c2nc(N)cc(N)n2)cs1)c1cc(-c2ccc(CCN3CCN(C)CC3)nc2)ccc1C

>  <assay value>
60.0%

$$$$
>  <smi>
CCCN(c1nc(-c2nc(N)cc(N)n2)cs1)c1cc(-c2ccc(S(=O)(=O)N3CCN(C)CC3)c(OC)c2)ccc1C

>  <assay value>
61.6%

$$$$
>  <smi>
CCCN(c1nc(-c2nccc(N)n2)cs1)c1cc(-c2ccc(CCN3CCN(C)CC3)cc2)ccc1C

>  <assay value>
95.1%

$$$$
>  <smi>
CCCN(c1nc(-c2nc(N)cc(N)n2)cs1)c1cc(-c2ccc(S(=O)(=O)N3CCN(C)CC3)cc2C(F)(F)F)ccc1C

>  <assay value>
63.0%

$$$$

Alright, here's another compound for you.
Provide dCK-C3S-S74E Enzymatic activity (ATP) Mean (% activity) reading for CCCN(c1nc(-c2nc(N)cc(N)n2)cs1)c1cc(-c2ccc(CCN3CCN(C)CC3)cc2)ccc1C .
78.6%

The measurements presented in this section are drawn from paper PMC10227015.
